Task for the reader: assign each of the following compounds its reported z-score of subpopulation abundance.
system: Saccharomyces cerevisiae BY4741 SeMeCo community; assay: z-score of subpopulation abundance vs DMSO median, subpopulation auxotrophic for U; higher = larger share of this subpopulation than in DMSO controls; conditions: 10 µM; 24 h; SM minimal medium; subpopulation (auxotrophy): U
Answers are plain numbers.

CC(C)NC(=N)NC(=N)Nc1ccc(Cl)cc1 [Proguanil] = 1.07
COc1ccc2c(c1)c(CC(=O)O)c(C)n2C(=O)c1ccc(Cl)cc1 [Indomethacin] = 0.52

Attention now turns to another entry.
I would be grateful if you could share the reported z-score of subpopulation abundance for Nc1ccc(S(=O)(=O)Nc2ncccn2)cc1 [Sodium sulfadiazine] . 0.32

----------
tested on: Saccharomyces cerevisiae BY4741 SeMeCo community; assay: z-score of prototroph abundance vs DMSO median; higher = larger share of this subpopulation than in DMSO controls; conditions: 10 µM; 24 h; SM minimal medium; subpopulation (auxotrophy): Prototroph
Where a name gives a salt, the structure may show the parent alone.
The threshold is inclusive: z-score of prototroph abundance of exactly -0.1 counts as rule met; values below receive rule not met.

COc1ccc(C2CNC(=O)C2)cc1OC1CCCC1 (stereo not drawn) [Rolipram] = rule met
NC[C@H]1O[C@H](O[C@H]2[C@H](O)[C@@H](O[C@H]3O[C@H](CO)[C@@H](O)[C@H](N)[C@H]3O)[C@H](N)C[C@@H]2N)[C@H](O)[C@@H](O)[C@@H]1O [Kanamycin sulfate] = rule not met
COc1ccc(NS(=O)(=O)c2ccc(N)cc2)nn1 = rule met
CN1C2CCC1CC(OC(=O)C(O)c1ccccc1)C2 (stereo not drawn) [Homatropine Bromide] = rule not met
COC(=O)Nc1nc2cc(C(=O)c3ccc(F)cc3)ccc2[nH]1 = rule met
CC(=O)[C@@]1(O)CC[C@H]2[C@@H]3C[C@H](C)C4=CC(=O)CC[C@]4(C)[C@H]3CC[C@@]21C = rule not met

Decide: z-score of prototroph abundance of "C[C@@H]1CC(=O)NN=C1c1ccc(NN=C(C#N)C#N)cc1" >= -0.1? rule met

Decide: z-score of prototroph abundance of CC[C@@]1(O)C(=O)OCc2c1cc1n(c2=O)Cc2cc3c(CN(C)C)c(O)ccc3nc2-1 [Topotecan HCl] >= -0.1? rule met

Decide: z-score of prototroph abundance of CCCCCOc1ccccc1/C(=C\SC)n1ccnc1 [Neticonazole Hydrochloride] >= -0.1? rule not met

Decide: z-score of prototroph abundance of CC[N+](C)(C)c1cccc(O)c1 [Edrophonium chloride] >= -0.1? rule not met

Decide: z-score of prototroph abundance of C[N+]1(C)CCC(=C(c2ccccc2)c2ccccc2)CC1 [Diphemanil Methylsulfate] >= -0.1? rule not met

Decide: z-score of prototroph abundance of CO/N=C(\C(=O)N[C@@H]1C(=O)N2C(C(=O)O)=C(CSc3nc(=O)c(O)nn3C)CS[C@H]12)c1csc(N)n1 [Ceftriaxone Sodium Trihydrate] >= -0.1? rule met

Decide: z-score of prototroph abundance of Cn1nnc(-c2ccc(-c3ccc(N4C[C@H](COP(=O)(O)O)OC4=O)cc3F)cn2)n1 [Tedizolid Phosphate] >= -0.1? rule met

----------
tested on: Saccharomyces cerevisiae BY4741 SeMeCo community; experiment: z-score of subpopulation abundance vs DMSO median, subpopulation auxotrophic for LM; higher = larger share of this subpopulation than in DMSO controls; settings: 10 µM; 24 h; SM minimal medium; subpopulation (auxotrophy): LM
Task for the reader: assign each of the following compounds its reported z-score of subpopulation abundance.
One number for each entry.

For orientation, consider the following solved cases.
O=C1N=C(O)NC1(c1ccccc1)c1ccccc1 [Phenytoin Sodium] = -0.6
Cc1nnc(NS(=O)(=O)c2ccc(N)cc2)s1 = -0.01
CCn1cc(C(=O)O)c(=O)c2ccc(C)nc21 = 0.23
C[C@@H](O)[C@H]1C(=O)N2C(C(=O)O)=C(S[C@@H]3CN[C@H](C(=O)Nc4cccc(C(=O)O)c4)C3)[C@H](C)[C@H]12 [Ertapenem sodium] = -0.04

Batch: z-score of subpopulation abundance for all items listed.
1. COc1ccc(CNc2nc(N3CCC[C@H]3CO)ncc2C(=O)NCc2ncccn2)cc1Cl
2. COc1ccccc1OCC(O)CN1CCN(CC(=O)Nc2c(C)cccc2C)CC1 (stereo unspecified)

1. -0.5
2. 0.68

----------
system: Saccharomyces cerevisiae BY4741 SeMeCo community; experiment: z-score of subpopulation abundance vs DMSO median, subpopulation auxotrophic for LUM; higher = larger share of this subpopulation than in DMSO controls; conditions: 10 µM; 24 h; SM minimal medium; subpopulation (auxotrophy): LUM
Structures can show the parent of a compound that is named as a salt.
The threshold is inclusive: z-score of subpopulation abundance of exactly -0.02 counts as label 1; values below receive label 0.

Decide: z-score of subpopulation abundance of CC(C(=O)O)c1ccc2c(c1)CC(=O)c1ccccc1S2 (stereo unspecified) >= -0.02? label 0

Decide: z-score of subpopulation abundance of Clc1ccc(COC(Cn2ccnc2)c2ccc(Cl)cc2Cl)c(Cl)c1 (stereo unspecified) [Miconazole Nitrate] >= -0.02? label 1

Decide: z-score of subpopulation abundance of COc1cccc(-c2c(C)n(Cc3c(F)cccc3C(F)(F)F)c(=O)n(C[C@H](NCCCC(=O)O)c3ccccc3)c2=O)c1F [Elagolix Sodium] >= -0.02? label 0

Decide: z-score of subpopulation abundance of "O=c1[nH]cc(F)c(=O)[nH]1" >= -0.02? label 1

Decide: z-score of subpopulation abundance of "Oc1cccc(O)c1" >= -0.02? label 0

Decide: z-score of subpopulation abundance of CC[C@H]1OC(=O)[C@H](C)[C@@H](O[C@H]2C[C@@](C)(OC)[C@@H](O)[C@H](C)O2)[C@H](C)[C@@H](O[C@@H]2O[C@H](C)C[C@H](N(C)C)[C@H]2O)[C@](C)(O)C[C@@H](C)CN(C)[C@H](C)[C@@H](O)[C@]1(C)O [Azithromycin Dihydrate] >= -0.02? label 0

Decide: z-score of subpopulation abundance of CCCCNc1ccc(C(=O)OCCN(C)C)cc1 [Tetracaine HCl] >= -0.02? label 1

Decide: z-score of subpopulation abundance of CCCCCCCCN=C(N)NC(N)=NCc1ccc(Cl)c(Cl)c1 [Olanexidine Hydrochloride semihydrate] >= -0.02? label 1

Decide: z-score of subpopulation abundance of "CC(C)NC(=N)NC(=N)Nc1ccc(Cl)cc1" >= -0.02? label 0

Decide: z-score of subpopulation abundance of "CC1(C)CC[C@]2(C(=O)O)CC[C@]3(C)C(=CC[C@@H]4[C@@]5(C)CC[C@H](O)C(C)(C)[C@@H]5CC[C@]43C)[C@@H]2C1" >= -0.02? label 1

----------
system: Saccharomyces cerevisiae BY4741 SeMeCo community; experiment: z-score of subpopulation abundance vs DMSO median, subpopulation auxotrophic for LU; higher = larger share of this subpopulation than in DMSO controls; conditions: 10 µM; 24 h; SM minimal medium; subpopulation (auxotrophy): LU
Structures can show the parent of a compound that is named as a salt.
measured attribute: z-score of subpopulation abundance
Give bare numbers.

For orientation, consider the following solved cases.
CC(C)[N+]1(C)[C@@H]2CC[C@H]1C[C@@H](OC(=O)C(CO)c1ccccc1)C2 (stereo partly specified) [Ipratropium Bromide] = 0.15
CCC1=C(C)CN(C(=O)NCCc2ccc(S(=O)(=O)NC(=O)N[C@H]3CC[C@H](C)CC3)cc2)C1=O [Glimepiride] = -0.1
CN(C)[C@@H](CCOc1cccc2ccccc12)c1ccccc1 [Dapoxetine HCl] = 0.55
CC1=C(C(=O)OC(C)C)C(c2cccc([N+](=O)[O-])c2)C(C(=O)OC2CN(C(c3ccccc3)c3ccccc3)C2)=C(N)N1 (stereo unspecified) [Azelnidipine] = 0.86
O=C(O)c1cc(=O)c2c(OCC(O)COc3cccc4oc(C(=O)O)cc(=O)c34)cccc2o1 [Disodium Cromoglycate] = -0.38

Attention now turns to another entry.
I would be grateful if you could share the reported z-score of subpopulation abundance for CCCCOc1ccc(CC(=O)NO)cc1 [Bufexamac] . -0.51

----------
system: Saccharomyces cerevisiae BY4741 SeMeCo community; assay: z-score of subpopulation abundance vs DMSO median, subpopulation auxotrophic for HU; higher = larger share of this subpopulation than in DMSO controls; details: 10 µM; 24 h; SM minimal medium; subpopulation (auxotrophy): HU
Task for the reader: assign each of the following molecules its reported z-score of subpopulation abundance.
One number for each entry.

Batch: z-score of subpopulation abundance for all items listed.
1. C[C@@H](O)[C@H]1C(=O)N2C(C(=O)[O-])=C(SC3Cn4cnc[n+]4C3)[C@H](C)[C@H]12 (stereo partly specified)
2. Oc1ccc(Cl)c2cccnc12
3. CC(C[N+](C)(C)C)OC(N)=O (stereo unspecified) [Bethanechol chloride]
4. CCCOc1ccc2[nH]c(NC(=O)OC)nc2c1
5. CN(C)c1cc(NC(=O)CNC(C)(C)C)c(O)c2c1CC1CC3C(N(C)C)C(=O)C(C(N)=O)=C(O)C3(O)C(=O)C1=C2O (stereo unspecified)

-0.36
11.8
0.89
0.92
1.34

Batch: z-score of subpopulation abundance for all items listed.
1. CCN1CCC[C@H]1CNC(=O)c1cc(S(N)(=O)=O)ccc1OC [Levosulpiride]
2. C[C@H](Nc1ncnc2nc[nH]c12)c1cc2cccc(Cl)c2c(=O)n1-c1ccccc1
3. C[C@@H](O)[C@H]1C(=O)N2C(C(=O)O)=C([C@H]3CCCO3)S[C@H]12 [Faropenem Sodium]
4. CSCC1CN(/N=C/c2ccc([N+](=O)[O-])o2)C(=O)O1 (stereo unspecified)
5. CCN(CC)CC#CCOC(=O)C(O)(c1ccccc1)C1CCCCC1 (stereo unspecified) [Oxybutynin]
6. CCCCC(=O)O[C@H]1CC[C@H]2[C@@H]3CCc4cc(O)ccc4[C@H]3CC[C@]12C [Estradiol valerate]

1. -0.27
2. -0.03
3. 0.81
4. -5.85
5. 0.37
6. -0.05
